experimental-protocol: binders of probe aHhip on microarray, primary screen, stem cell growth factor project, biochemical, small-molecule microarray, fluorescence 635/667 (AID 1087);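 further: score merges spot fluorescence at 667nm with spot signal to noise ratio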
condition-context: higher = more signal
Classify as follows. Reported composite z-score greater than or equal to 0.01: satisfied. Reported composite z-score below: not satisfied.

- COC(=O)C(CC#Cc1ccc2c(c1)[C@]1(C(=O)N2)[C@H](C(=O)N2CCN(c3ncccn3)CC2)[C@H]2C(=O)O[C@H](c3ccccc3)[C@H](c3ccccc3)N2[C@@H]1c1ccc(OCCO)cc1)C(=O)OC: not satisfied
- COc1ccc(NC(=O)O[C@H]2[C@H](OC(=O)Nc3ccccc3)[C@H](OC(=O)Nc3ccccc3)[C@@H](OC)O[C@@H]2CO)cc1: satisfied

## Task Entry `CN(C)C(=O)[C@@]1(CCS(=O)(=O)c2ccccc2)N=C(c2ccc(OCCCO)cc2)O[C@H]1c1ccccc1` : is its composite z-score no less than 0.01?
## Result satisfied

## Task Entry `COCCOC(=O)N1C(=O)[C@@]2(c3cc(C#CCCO)ccc31)[C@H](C(=O)Nc1nc3ccccc3s1)[C@H]1C(=O)O[C@H](c3ccccc3)[C@H](c3ccccc3)N1[C@@H]2c1ccccc1OCCO` : is its composite z-score no less than 0.01?
## Result satisfied

## Task Entry `CCOC(=O)C1=C[C@@H](c2ccccc2)N(S(=O)(=O)c2ccc(C)cc2)[C@H]1c1ccccc1Cl` : is its composite z-score no less than 0.01?
## Result not satisfied

## Task Entry `COCCOC(=O)N1C(=O)[C@@]2(c3cc(C#Cc4ccc(OC)cc4)ccc31)[C@H](C(=O)Nc1nc3ccccc3s1)[C@H]1C(=O)O[C@H](c3ccccc3)[C@H](c3ccccc3)N1[C@@H]2c1ccc(O)cc1` : is its composite z-score no less than 0.01?
## Result satisfied

## Task Entry `CCCCCCc1nc(C2CC2)cc2c1[Si](C(C)C)(C(C)C)OC2` : is its composite z-score no less than 0.01?
## Result not satisfied
